Below is a list of entries, each paired with its recorded GI50 value.
- Test system: DMS-114
- Procedure Details: NCI tumour cell line growth inhibition, 48 h
The source made the active and inactive calls. Rule as the data show it: active = GI50 up to about 1.1 µM and inactive = higher.

Please review the following examples before continuing.
O=C(c1ccc([N+](=O)[O-])cc1[N+](=O)[O-])N(/N=C/C=C/c1ccccc1)c1nnc(-c2ccccc2)c(-c2ccccc2)n1; 29.2 µM (inactive)
CC1=C(Cl)C=CP(=O)(OC(C)C)C1 (centres undefined); > 100 µM (inactive)
O=C1[C@H]2ON(c3ccccc3)C(c3ccc(Cl)cc3Cl)[C@H]2C(=O)N1c1ccc(Cc2ccc(N3C(=O)[C@@H]4ON(c5ccccc5)C(c5ccc(Cl)cc5Cl)[C@@H]4C3=O)cc2)cc1 (some centres undefined); > 100 µM (inactive)
CCCCCCCCCCCCCCCCCC(=O)O[C@H](COC(=O)CCCCCCCCCCC)COC(=O)CCCCCCCCCCCCCCC; > 100 µM (inactive)
COc1cccc(C2SCc3nc4ccccc4n32)c1 (centres undefined); 21.3 µM (inactive)

**Q:** Fill in: GI50 of Cc1ccc(C2CC(c3ccc([N+](=O)[O-])cc3)=Nc3ccccc3S2)cc1 (centres undefined) is ___
**A:** 16.5 µM (inactive)

**Q:** Try this compound too: CN1CCCC2(CCCc3ccccc32)C1 (centres undefined)
**A:** > 100 µM (inactive)

**Q:** Try this compound too: COc1ccc(NN=C2C(=O)CCC2=O)cc1
**A:** > 100 µM (inactive)

**Q:** Try this compound too: CN(CCc1ccccn1)/[N+]([O-])=N/O.CNCCc1ccccn1
**A:** > 100 µM (inactive)

**Q:** Try this compound too: Clc1ccc(-n2nnc(C3=NCCN3)c2-c2ccccc2)cc1
**A:** > 100 µM (inactive)

**Q:** Try this compound too: COc1cc2c(cc1OC)[C@@H](C(O)c1ccccc1)NCC2 (some centres undefined)
**A:** > 100 µM (inactive)

**Q:** Try this compound too: O=C(/C=N/O)Nc1cccc(Cl)c1I
**A:** 23.3 µM (inactive)

**Q:** Try this compound too: CSc1n[n+]2c(s1)SCCC2
**A:** 62.5 µM (inactive)

**Q:** Try this compound too: S=P(N1CCCC1)(N1CC1)N1CC1
**A:** 99.5 µM (inactive)

**Q:** Try this compound too: CN(C)CC1CC/C(=C\c2ccc(O)cc2)C1=O (centres undefined)
**A:** 10 µM (inactive)

**Q:** Try this compound too: O=C(Nc1cc(Cl)ccc1Cl)c1cc2ccccc2oc1=O
**A:** 78 µM (inactive)

**Q:** Try this compound too: C/C(CN1C(=O)c2ccccc2C1=O)=N\NS(=O)(=O)c1ccc(Br)cc1
**A:** 10.9 µM (inactive)

**Q:** Try this compound too: O=C(c1ccc(Cl)cc1)c1ccc(OCCCOc2ccc(C(=O)c3ccc(Cl)cc3)cc2Cl)c(Cl)c1
**A:** > 100 µM (inactive)

**Q:** Try this compound too: CNS(=O)(=O)NN(C)S(=O)(=O)c1ccc(C)cc1
**A:** > 100 µM (inactive)

---

- System: SNB-19
- Procedure Details: NCI tumour cell line growth inhibition, 48 h
Activity calls are given as the source filed them. Cut-off read from the data, not from the text of the source: active = GI50 up to about 1.1 µM and inactive = higher.
Reported Property: GI50

Please review the following examples before continuing.
OC(CN(CCCl)CCCl)C(O)C(O)C(O)CN(CCCl)CCCl (stereo not given); > 100 µM (inactive)
CCCCCCCCCCCCOC1C(COCCN2CCCCC2)OC2OC(C)(C)OC21 (stereo not given); 2.5 µM (inactive)
Cc1cc(C)c2c(n1)S(=O)(=O)N(CCCN1CCN(c3cccc(C(F)(F)F)c3)CC1)c1c-2nn(C)c1C; > 100 µM (inactive)
COc1cc(NCC2COc3c(ccc(OC)c3OC)C2=O)c([N+](=O)[O-])cc1OC (stereo not given); > 100 µM (inactive)

Next:
**Q:** Given the entry COc1cccc(/C=N/n2c(Cc3ccc(Cl)cc3)n[nH]c2=O)c1 , what GI50 was observed with SNB-19?
**A:** 27.3 µM (inactive)

---

- System: SNB-19
- Procedure Details: NCI tumour cell line growth inhibition, 48 h
Calls of active or inactive are those of the source. Rule as the data show it: active = GI50 up to about 1.1 µM and inactive = higher.
Below is a list of entries, each paired with its recorded GI50 value.

**Q:** Given the entry Nc1nc(SC/C=C/c2ccccc2)c2[nH]cnc2n1 , what GI50 was observed with SNB-19?
**A:** > 100 µM (inactive)

**Q:** Try this compound too: COc1cc2c(cc1OC)C13CCN4CC5CCOC6CC(=O)N2C1C6C5CC43 (stereo not drawn)
**A:** > 100 µM (inactive)

**Q:** Try this compound too: CCOC(=O)NC(Nc1ccc(C(=O)O)cc1)(C(F)(F)F)C(F)(F)F
**A:** > 100 µM (inactive)

---

- System: HCC 2998
- Procedure Details: NCI tumour cell line growth inhibition, 48 h
The source made the active and inactive calls. Rule as the data show it: active = GI50 up to about 1.1 µM and inactive = higher.
Reported Property: GI50

CN(CCc1ccccn1)/[N+]([O-])=N/O.CNCCc1ccccn1; > 100 µM (inactive)
O=C1c2ccccc2C(=O)c2c(NCC(O)CO)ccc(NCC(O)CO)c21 (stereo unspecified); 72.6 µM (inactive)
CC(=O)NC1c2ccccc2C(C)(C)C12CCC1(CC2)OCCO1 (stereo unspecified); > 100 µM (inactive)
COc1cc2c(cc1OC)[C@H]1C(COC(=O)Nc3ccccc3)CN1CC2 (stereo partly specified); 67.6 µM (inactive)
c1ccc(C2=NOC(c3ccccc3)N2C23CC4CC(CC(C4)C2)C3)cc1 (stereo unspecified); > 10 µM (inactive)

**Q:** Fill in: GI50 of NC(CC(=O)OCc1ccccc1)C(=O)OCc1ccccc1 (stereo unspecified) is ___
**A:** 33.2 µM (inactive)

---

- Tested on: IGROV-1
- Procedure Details: NCI tumour cell line growth inhibition, 48 h
The source made the active and inactive calls. Rule as the data show it: active = GI50 up to about 1.1 µM and inactive = higher.
Select the matching outcome among t for active, f for inactive

Completed entries (count: 5):
O=C(CCC(=O)Nc1ccc(Cl)c(Cl)c1)CC(=O)c1ccc(Cl)cc1; f
O=C1Oc2ccccc2N/C1=C/C(=O)c1ccc(Cl)cc1; f
COC(=O)C1(Cc2ccccc2)Cc2cc3c(cc2C1=O)CCC3 (stereo not given); f
CSc1c(C#N)c2n(c3ccccc13)c1ccccc1[n+]2C; f
NC1=NN(c2ccccc2)C(=O)C1C(=O)CCC(=O)Nc1cccc(C(F)(F)F)c1 (stereo not given); f

**Q:** Would you mind telling me which call this test gave O=C(/C=C/c1ccccc1)C[C@@H](O)C[C@@H]1CC=CC(=O)O1 ?
**A:** f

**Q:** Try this molecule too: CC(=O)OC1CC[C@@]2(C)C(=CC[C@@H]3[C@@H]2CC[C@]2(C)Nc4nn(S(C)(=O)=O)cc4C[C@@H]32)C1 (stereo not given in full)
**A:** f

**Q:** Try this molecule too: CNC(=O)Oc1ccc(-c2cn3cc(OC(=O)NC)ccc3n2)cc1
**A:** f

**Q:** Try this molecule too: CCCCCC(O)(CCCCC)CCCCCCCCC1=C(O)C(=O)c2ccccc2C1=O
**A:** f

**Q:** Try this molecule too: CC(=O)[C@]1(O)Cc2c(O)c3c(c(O)c2C(OC2OC(C)C(O)C(O)C2F)C1)C(=O)c1ccccc1C3=O (stereo not given in full)
**A:** t

---

Below is a list of entries, each paired with its recorded GI50 value.
- Tested on: NCI-H460
- Procedure Details: NCI tumour cell line growth inhibition, 48 h
Activity calls are given as the source filed them. Cut-off read from the data, not from the text of the source: active = GI50 up to about 1.1 µM and inactive = higher.

Please review the following examples before continuing.
CCOC(=O)CN1C(=O)c2c(NC(=O)C(=O)O)cccc2S1(=O)=O; > 100 µM (inactive)
CCOC(=O)NC(Nc1ccc(C(=O)O)cc1)(C(F)(F)F)C(F)(F)F; > 100 µM (inactive)
C1=N\c2ccc(cc2)-c2ccc(cc2)/N=C\c2ccc(cc2)OCc2cccc(n2)COc2ccc/1cc2; > 100 µM (inactive)
COc1ccc(NN=C2C(=O)CCC2=O)cc1; > 100 µM (inactive)
NC1=NN(c2ccccc2)C(=O)C1C(=O)CCC(=O)Nc1cccc(C(F)(F)F)c1 (centres undefined); > 100 µM (inactive)

**Q:** Fill in: GI50 of COc1cc(C2c3cc4c(cc3OC(N3CCCCC3)C2C)OCO4)cc(OC)c1O (centres undefined) is ___
**A:** 6.64 µM (inactive)

**Q:** Try this compound too: CCC(C)n1c(C)nc2c1C(=O)c1ccccc1C2=O (centres undefined)
**A:** 19.3 µM (inactive)

**Q:** Try this compound too: CC(=O)NC(Cc1ccccc1)NC(=O)O (centres undefined)
**A:** > 100 µM (inactive)

**Q:** Try this compound too: COc1cc2c(cc1OC)C13CCN4CC5CCOC6CC(=O)N2C1C6C5CC43 (centres undefined)
**A:** > 100 µM (inactive)

**Q:** Try this compound too: O=C(c1ccc([N+](=O)[O-])cc1[N+](=O)[O-])N(/N=C/C=C/c1ccccc1)c1nnc(-c2ccccc2)c(-c2ccccc2)n1
**A:** 34 µM (inactive)

**Q:** Try this compound too: C/C=C(\C)[C@@H](O)C(=O)O[C@@H]1CC(C(C)(C)O)[C@](C)(CCC(=O)OC)[C@H]2[C@H](OC(=O)[C@H](O)[C@H](C)CC)C[C@]3(C)C(=CC[C@H]3[C@H]3CO[C@H](C=C(C)C)C3)[C@]12C (some centres undefined)
**A:** 18.5 µM (inactive)

**Q:** Try this compound too: CC(=O)Nc1ccc(/C=C/c2ccc(NC(=O)Nc3ccc(/C=C/c4ccc(NC(C)=O)cc4S(=O)(=O)O)c(S(=O)(=O)O)c3)cc2S(=O)(=O)O)c(S(=O)(=O)O)c1
**A:** > 100 µM (inactive)

**Q:** Try this compound too: O=c1[nH]c(=O)n(C2CC(O)C(CO)O2)cc1COCC(F)(F)F (centres undefined)
**A:** > 100 µM (inactive)

**Q:** Try this compound too: COc1cc2c(cc1OC)[C@H]1C(COC(=O)Nc3ccccc3)CN1CC2 (some centres undefined)
**A:** > 100 µM (inactive)

**Q:** Try this compound too: Cc1cc(C)c2c(n1)S(=O)(=O)N(CCCN1CCN(c3cccc(C(F)(F)F)c3)CC1)c1c-2nn(C)c1C
**A:** 89.3 µM (inactive)

**Q:** Try this compound too: CN(C)CCNC(=O)c1cccc2nc(-c3ccccc3)oc12
**A:** 30.4 µM (inactive)

**Q:** Try this compound too: CC(C)=CC(Cc1ccccc1)S(=O)(=O)c1nc2ccccc2s1 (centres undefined)
**A:** 21.3 µM (inactive)

**Q:** Try this compound too: NC(Cc1ccc2oc3cc(=O)c4ccccc4c-3nc2c1)C(=O)O (centres undefined)
**A:** 11.5 µM (inactive)

**Q:** Try this compound too: CCCCCC(O)(CCCCC)CCCCCCCCC1=C(O)C(=O)c2ccccc2C1=O
**A:** 5.28 µM (inactive)

**Q:** Try this compound too: OCCN1CCN(c2nc(N3CCCC3)c3nc(Cl)c(NCc4ccccc4)nc3n2)CC1
**A:** 5.58 µM (inactive)

**Q:** Try this compound too: CC(C)(C)/N=C1/CC(C)(C)c2ccccc2/C(=N\c2ccccc2)S1
**A:** 30.1 µM (inactive)

**Q:** Try this compound too: C/C(CN1C(=O)c2ccccc2C1=O)=N\NS(=O)(=O)c1ccc(Br)cc1
**A:** > 100 µM (inactive)

**Q:** Try this compound too: S=P(N1CCCC1)(N1CC1)N1CC1
**A:** 32.4 µM (inactive)

Data provenance: ChEMBL document CHEMBL1201862
